target.of.assay: Cellular tumor antigen p53 (Homo sapiens) (UniProt P04637)
Sequence (P04637 whole entry, looked up): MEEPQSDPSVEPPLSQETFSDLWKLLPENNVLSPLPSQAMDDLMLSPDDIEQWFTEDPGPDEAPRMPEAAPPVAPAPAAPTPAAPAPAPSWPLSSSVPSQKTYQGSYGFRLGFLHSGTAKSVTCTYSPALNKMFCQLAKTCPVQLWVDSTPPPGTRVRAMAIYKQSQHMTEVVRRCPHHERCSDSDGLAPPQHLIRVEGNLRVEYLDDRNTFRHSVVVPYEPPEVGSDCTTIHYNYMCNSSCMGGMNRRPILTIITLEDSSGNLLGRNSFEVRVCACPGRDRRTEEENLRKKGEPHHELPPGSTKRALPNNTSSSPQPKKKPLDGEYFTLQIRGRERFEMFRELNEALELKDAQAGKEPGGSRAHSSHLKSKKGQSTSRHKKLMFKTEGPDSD
assay.name: TOX21_p53_BLA_p2_ratio: Tox21 HCT-116 p53 Agonism Beta-lactamase Assay, Ratio, Phase 2 (AID 2283592)
Results filed as inconclusive are left out. Active and inactive are the calls of the source. Rule for the calls: active = hit-call score of the fitted dose curve at least 0.9, where 1 is the maximum; inconclusive = response in the unintended direction; inactive = score below 0.9.
Outcome field: choose from T for active, F for inactive

{"molecule": "C[N+](C)(C)C", "label.class": "F"}
{"molecule": "CC(=O)OCC1=C(C(=O)O)N2C(=O)[C@@H](N)[C@H]2SC1", "label.class": "F"}
{"molecule": "CCCC(Cn1cncn1)c1ccc(Cl)cc1Cl (centres undefined)", "label.class": "T"}

Query: Tell me the recorded outcome of this test for `O=C(NCc1cccnc1)Nc1ccc([N+](=O)[O-])cc1` .
Reply: F

Query: Assay result, entry `Nc1cc(Cl)ccc1Cl` — outcome?
Reply: F

* * *

assay.name: CCTE_Mundy_HCI_Cortical_NOG_NeuronCount: CCTE's Neurite Outgrowth Assay in rat cortical cells for Neuron Count, Mundy Lab (AID 2284236);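 note: neurons counted by imaging betaIII-tubulin and Hoechst stained cortical cells; cells exposed to compound for about 48 hours before fixation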
Results filed as inconclusive are left out. The source made the active and inactive calls. The calls were made as follows: active = hit-call score of the fitted dose curve at least 0.9, where 1 is the maximum; inconclusive = response in the unintended direction; inactive = score below 0.9.
result.type: AC50

These solved cases illustrate the format of a correct answer.
{"molecule": "CCOP(=O)(Oc1cnc(C(C)(C)C)nc1)OC(C)C (centres undefined)", "AC50": "inactive"}
{"molecule": "CCOP(=O)(OCC)SCSCC", "AC50": "89 µM (active)"}
{"molecule": "CC1(C)[C@H](C=C(Cl)Cl)[C@H]1C(=O)OCc1c(F)c(F)cc(F)c1F", "AC50": "50 µM (active)"}
{"molecule": "CC1(C)[C@@H](C=C(Cl)Cl)[C@@H]1C(=O)O[C@@H](C#N)c1ccc(F)c(Oc2ccccc2)c1", "AC50": "inactive"}
{"molecule": "CC1(C)[C@H](C(=O)O[C@H](C#N)c2cccc(Oc3ccccc3)c2)[C@@H]1C=C(Br)Br", "AC50": "inactive"}
{"molecule": "[CH3][Sn]([CH3])[CH3]", "AC50": "inactive"}

Query: Note down AC50 recorded for Cc1ccc(OP(=O)(Oc2ccc(C)cc2)Oc2ccc(C)cc2)cc1 (tested in a mixture with another compound)
Reply: 25.6 µM (active)

Query: Quickly give me recorded AC50 for `CN1C(=O)CN=C(c2ccccc2)c2cc(Cl)ccc21`
Reply: inactive

Query: For the molecule `O.O.O.O.O.[Cd+2].[Cd+2].[Cl-].[Cl-].[Cl-].[Cl-]` , report AC50.
Reply: 76.6 µM (active)

Query: Let me know recorded AC50 for `CCC[CH2][Sn]([CH2]CCC)([CH2]CCC)[O][Sn]([CH2]CCC)([CH2]CCC)[CH2]CCC` , thanks.
Reply: 0.0311 µM (active)

Query: Quick one: give measured AC50 for `C[C@H](N)Cc1ccccc1`
Reply: inactive

Query: Consider the molecule CC1(C)C(C=C(Cl)c2ccc(Cl)cc2)C1C(=O)OC(C#N)c1ccc(F)c(Oc2ccccc2)c1 (centres undefined) . State its measured AC50.
Reply: inactive

Query: Entry `O=C(O)CNCP(=O)(O)O` needs its AC50 filled in; supply it.
Reply: inactive

Query: Supply AC50 value. Item: `CC1(C)[C@H](C=C(Cl)Cl)[C@@H]1C(=O)O[C@@H](C#N)c1cccc(Oc2ccccc2)c1`
Reply: inactive

* * *

target.of.assay: Aryl hydrocarbon receptor (Homo sapiens)
assay.name: ATG_Ahr_CIS: Attagene CIS-FACTORIAL HepG2 Assay for human Aryl Hydrocarbon Receptor (Ahr) (AID 2282930)
study.conditions: HepG2 AhR cis-factorial reporter transcription; actives raise or lower the signal
The source made the active and inactive calls. How the source made its calls: active means hit-call score of the fitted dose curve at least 0.9, where 1 is the maximum; inactive means score below 0.9.
Outcome (select one): 1.0 (active), 0.0 (inactive)

Observe how each entry below is paired with its result.
{"molecule": "CC(C)(O)C#N", "label.class": 0.0}
{"molecule": "CC(C)[C@@H](C(=O)O[C@@H](C#N)c1cccc(Oc2ccccc2)c1)c1ccc(Cl)cc1", "label.class": 0.0}
{"molecule": "O=[N+]([O-])c1cc([N+](=O)[O-])c2ccccc2c1", "label.class": 1.0}

Proceed to the following item.
Query: GET /call?item= `O=[N+]([O-])c1cc(C(F)(F)F)c(Cl)c([N+](=O)[O-])c1Cl` returns the recorded outcome of this test.
Reply: 0.0

* * *

assay.name: CCTE_Mundy_HCI_Cortical_Synap_Neur_Matur_NeuriteSpotCountPerNeuriteLength: CCTE's Synaptogenesis and Neurite Maturation Assay in rat cortical cells for Neurite Spot Count per Neurite Length, Mundy Lab (AID 2284210)
The source made the active and inactive calls. The calls were made as follows: active = hit-call score of the fitted dose curve at least 0.9, where 1 is the maximum; inactive = score below 0.9.
Your response should consist of one outcome taken from active, inactive

These recorded examples may help you get a feel for the data.
{"molecule": "CC1(C)[C@H](C=C(Cl)Cl)[C@H]1C(=O)OCc1c(F)c(F)cc(F)c1F", "label.class": "active"}
{"molecule": "C=CCN1CC[C@]23c4c5ccc(O)c4O[C@H]2C(=O)CC[C@@]3(O)[C@H]1C5", "label.class": "inactive"}

Query: Record lookup: outcome of this test for `[CH3][Hg][Cl]` ?
Reply: active

Query: Please share the test call associated with `CC(=O)[O-].[Tl+]` .
Reply: active

Query: Give the logged outcome of this assay for the following molecule: `O.O.O.O.O.[Cd+2].[Cd+2].[Cl-].[Cl-].[Cl-].[Cl-]`
Reply: active

Query: State the result this test recorded for CC1(C)C(C=C(Cl)Cl)C1C(=O)O[C@H](C#N)c1cccc(Oc2ccccc2)c1 (stereo partly specified) .
Reply: active

* * *

Read-out: Collagen III, COL3A1 (gene 1281)
assay.name: BSK_hDFCGF_CollagenIII: BioMAP Diversity Plus: hDFCGF Assay for Collagen III Biomarker Activity (AID 2283056)
study.conditions: primary human foreskin fibroblasts; actives raise or lower the signal
Procedure: BSK_hDFCGF is a cell-based, multiplexed-readout assay that uses foreskin fibroblast, a human skin primary cell, with measurements taken at 24 hours after chemical dosing in a 96-well plate.BSK_hDFCGF_CollagenIII is an assay component measured in the BSK_hDFCGF assay. It measures Collagen antibody related to regulation of gene expression using ELISA technology.Data from the assay component BSK_hDFCGF_CollagenIII was analyzed into 1 assay endpoint. […]
Activity calls are given as the source filed them. The calls were made as follows: active = hit-call score of the fitted dose curve at least 0.9, where 1 is the maximum; inactive = score below 0.9.
result.type: AC50

# annotated cases, reported AC50 shown
{"molecule": "O=S(=O)(c1ccccc1)c1ccccc1", "AC50": "inactive"}
{"molecule": "O=c1[nH]c(Cl)c(Cl)cc1Cl", "AC50": "inactive"}
{"molecule": "CCCCCCCCCCCC#N", "AC50": "inactive"}
{"molecule": "O=P1(NCCCl)OCCCN1CCCl (stereo not given)", "AC50": "inactive"}

Query: Tell me AC50 reported for `O=C(CCl)c1ccccc1`
Reply: 4.85 µM (active)

Query: Kindly indicate its recorded AC50. Item: `COCC(=O)N(c1c(C)cccc1C)N1CCOC1=O`
Reply: inactive

Query: Return the recorded AC50 value; entry: `C=CCN(CC=C)C(=O)C(Cl)Cl`
Reply: inactive

Query: Supply recorded AC50 for `O=C1C(Cl)=C(Cl)C(=O)C(Cl)=C1Cl` here.
Reply: 20 µM (active)

Query: For the molecule `O=c1c2ccccc2c(=O)c2c1cc(Cl)c1[nH]c3c([nH]c12)c(Cl)cc1c(=O)c2ccccc2c(=O)c13` , report AC50.
Reply: inactive

Query: Please report AC50 for the following molecule: CC(C)(C)C(O)C(Oc1ccc(-c2ccccc2)cc1)n1cncn1 (stereo not given)
Reply: 24.9 µM (active)

* * *

Read-out: Vascular cell adhesion molecule 1 (VCAM1), VCAM1 (gene 7412)
assay.name: BSK_LPS_VCAM1: BioMAP Diversity Plus: LPS Assay for Vascular cell adhesion molecule 1 (VCAM1) Biomarker Activity (AID 2283086)
study.conditions: primary human HUVEC with PBMC; actives raise or lower the signal
The source made the active and inactive calls. Rule for the calls: active = hit-call score of the fitted dose curve at least 0.9, where 1 is the maximum; inactive = score below 0.9.
Reply using exactly one outcome from active, inactive

Examples with answers:
{"molecule": "COC(C)(C)CCC[C@H](C)C/C=C/C(C)=C/C(=O)OC(C)C", "label.class": "active"}
{"molecule": "CCCCCCCCCCCC#N", "label.class": "active"}
{"molecule": "O=c1[nH]c(Cl)c(Cl)cc1Cl", "label.class": "inactive"}

Query: Check the results log: what was the call for `CC(=O)/C=C/c1ccccc1` ?
Reply: active

Query: Hello, I am checking results. What call was entered for `COCC(=O)N(c1c(C)cccc1C)N1CCOC1=O` ?
Reply: inactive

Query: Test call for this compound, please: `Oc1cc(Cl)ccc1Cl`
Reply: inactive

Query: Would you mind telling me which call this test gave `N#CCCCCC#N` ?
Reply: inactive

Query: Which result was noted for this compound in the test: `O=C(CCl)c1ccccc1`
Reply: active

Query: Dear all, I need the recorded test outcome for `CC(C)CCCCCCCOC(=O)c1ccccc1C(=O)OCCCCCCCC(C)C` , thank you.
Reply: inactive

Query: # lookup: test call for `CC(C)(C)C(=O)CCl`
Reply: active
